- run-conditions: in acetone, 283.15 K
assay-endpoint: solubility (mole fraction)

1) O=C(O)CCCCCCCC(=O)O
0.0129

###

- run-conditions: in acetic acid, 313.35 K
assay-endpoint: solubility (mole fraction)

1) O=C(O)CCCCCCCC(=O)O
0.0746

###

- run-conditions: in ethylene glycol, 317.05 K
assay-endpoint: solubility (mole fraction)

1. O=C(O)CCCCCCCC(=O)O
0.0622

###

- run-conditions: in acetic acid, 318.85 K
assay-endpoint: solubility (mole fraction)

1. O=C(O)CCCCCCCC(=O)O
0.0964

###

- run-conditions: in acetic acid, 341.75 K
assay-endpoint: solubility (mole fraction)

1. O=C(O)CCCCCCCC(=O)O
0.265

###

- run-conditions: in ethylene glycol, 312.25 K
assay-endpoint: solubility (mole fraction)

1) O=C(O)CCCCCCCC(=O)O
0.0496

###

- run-conditions: in ethylene glycol, 321.55 K
assay-endpoint: solubility (mole fraction)

1) O=C(O)CCCCCCCC(=O)O
0.0791

###

- run-conditions: in acetone, 325.35 K
assay-endpoint: solubility (mole fraction)

1) O=C(O)CCCCCCCC(=O)O
0.12

###

- run-conditions: in acetic acid, 330.95 K
assay-endpoint: solubility (mole fraction)

1) O=C(O)CCCCCCCC(=O)O
0.169

###

- run-conditions: in acetone, 297.55 K
assay-endpoint: solubility (mole fraction)

1. O=C(O)CCCCCCCC(=O)O
0.0275

###

- run-conditions: in ethanol, 317.05 K
assay-endpoint: solubility (mole fraction)

1. O=C(O)CCCCCCCC(=O)O
0.117

###

- run-conditions: in acetic acid, 303.45 K
assay-endpoint: solubility (mole fraction)

1. O=C(O)CCCCCCCC(=O)O
0.0452

###

- run-conditions: in acetone, 312.05 K
assay-endpoint: solubility (mole fraction)

1) O=C(O)CCCCCCCC(=O)O
0.0587

###

- run-conditions: in acetone, 279.45 K
assay-endpoint: solubility (mole fraction)

1. O=C(O)CCCCCCCC(=O)O
0.0103

###

- run-conditions: in ethylene glycol, 307.35 K
assay-endpoint: solubility (mole fraction)

1. O=C(O)CCCCCCCC(=O)O
0.0395

###

- run-conditions: in ethanol, 326.85 K
assay-endpoint: solubility (mole fraction)

1) O=C(O)CCCCCCCC(=O)O
0.166

###

- run-conditions: in ethylene glycol, 303.35 K
assay-endpoint: solubility (mole fraction)

1) O=C(O)CCCCCCCC(=O)O
0.03

###

- run-conditions: in ethanol, 304.05 K
assay-endpoint: solubility (mole fraction)

1. O=C(O)CCCCCCCC(=O)O
0.069

###

- run-conditions: in acetone, 303.05 K
assay-endpoint: solubility (mole fraction)

1. O=C(O)CCCCCCCC(=O)O
0.0365

###

- run-conditions: in ethanol, 297.55 K
assay-endpoint: solubility (mole fraction)

1. O=C(O)CCCCCCCC(=O)O
0.0546

###

- run-conditions: in ethanol, 307.35 K
assay-endpoint: solubility (mole fraction)

1) O=C(O)CCCCCCCC(=O)O
0.083

###

- run-conditions: in ethanol, 332.05 K
assay-endpoint: solubility (mole fraction)

1) O=C(O)CCCCCCCC(=O)O
0.202

###

- run-conditions: in acetone, 294.15 K
assay-endpoint: solubility (mole fraction)

1) O=C(O)CCCCCCCC(=O)O
0.0228

###

- run-conditions: in ethylene glycol, 283.35 K
assay-endpoint: solubility (mole fraction)

1) O=C(O)CCCCCCCC(=O)O
0.01

###

- run-conditions: in ethylene glycol, 278.65 K
assay-endpoint: solubility (mole fraction)

1) O=C(O)CCCCCCCC(=O)O
0.0083

###

- run-conditions: in acetic acid, 325.35 K
assay-endpoint: solubility (mole fraction)

1. O=C(O)CCCCCCCC(=O)O
0.132

###

- run-conditions: in ethanol, 276.75 K
assay-endpoint: solubility (mole fraction)

1) O=C(O)CCCCCCCC(=O)O
0.0212

###

- run-conditions: in acetone, 276.65 K
assay-endpoint: solubility (mole fraction)

1) O=C(O)CCCCCCCC(=O)O
0.00895

###

- run-conditions: in ethanol, 283.25 K
assay-endpoint: solubility (mole fraction)

1) O=C(O)CCCCCCCC(=O)O
0.0292

###

- run-conditions: in ethylene glycol, 336.15 K
assay-endpoint: solubility (mole fraction)

1) O=C(O)CCCCCCCC(=O)O
0.167

###

- run-conditions: in acetone, 316.15 K
assay-endpoint: solubility (mole fraction)

1. O=C(O)CCCCCCCC(=O)O
0.0732

###

- run-conditions: in ethylene glycol, 292.85 K
assay-endpoint: solubility (mole fraction)

1. O=C(O)CCCCCCCC(=O)O
0.0144
